# SYSTEM TESTED: BTK protein in human whole blood (Homo sapiens (Human))
# TEST SUMMARY: Btk protein in human whole blood MSD ELISA based assay (BTK degradation)
# Assay type: cell-based
# SETUP CONDITIONS: 6 hours, maximum BTK degradation compared to DMSO only treated samples, read-out: hWB BTK dMax (%)
MEASURED ENDPOINT: Dmax (%)

| COMPOUND | SYSTEM TESTED | UNIT SYMBOL | Dmax |
| --- | --- | --- | --- |
| C[C@@H](NC(=O)c1nc(C(C)(C)C)no1)c1ccc(-c2cc(Nc3ccc(N4CCN(CCc5ccc(N6CCC(=O)NC6=O)cc5)C[C@@H]4C)cn3)ncn2)cc1C(F)(F)F [Example 16] | BTK protein in human whole blood (Homo sapiens (Human)) | % | 100 |
| CC[C@H]1CN(CCc2ccc(N3CCC(=O)NC3=O)cc2)CCN1c1ccc(Nc2cc(-c3ccc([C@@H](C)NC(=O)c4nc(C(C)(C)C)no4)c(C)c3)ncn2)nc1 [Example 6] | BTK protein in human whole blood (Homo sapiens (Human)) | % | 99.8 |
| C[C@@H](NC(=O)c1nc(C(C)(C)C)no1)c1ccc(-c2cc(Nc3ccc(N4CCN(CCc5ccc(N6CCC(=O)NC6=O)cc5)C[C@@H]4C)cn3)ncn2)cc1F [Example 17] | BTK protein in human whole blood (Homo sapiens (Human)) | % | 99.6 |
| Cc1cc(-c2cc(Nc3ccc(N4CCN(CCc5ccc(N6CCC(=O)NC6=O)cc5)CC4)cn3)ncn2)ccc1[C@@H](C)NC(=O)c1nc(C(C)(C)C)no1 [Example 3] | BTK protein in human whole blood (Homo sapiens (Human)) | % | 99.2 |
| C[C@@H](NC(=O)c1nc(C(C)(C)C)no1)c1ccc(-c2cc(Nc3ccc(N4CCN(CCc5ccc(N6CCC(=O)NC6=O)cc5)C[C@@H]4C)cn3)ncn2)cc1Cl [Example 14] | BTK protein in human whole blood (Homo sapiens (Human)) | % | 99.7 |

====

# SYSTEM TESTED: BTK protein in human whole blood (Homo sapiens (Human))
# TEST SUMMARY: Btk protein in human whole blood MSD ELISA based assay (BTK degradation)
# Assay type: cell-based
# SETUP CONDITIONS: 6 hours, maximum BTK degradation compared to DMSO only treated samples, read-out: hWB BTK dMax (%)
MEASURED ENDPOINT: Dmax (%)

| COMPOUND STRUCTURE | MEASURED ENDPOINT | UNIT SYMBOL | QUANTITATIVE RESULT |
| --- | --- | --- | --- |
| Cc1cc(-c2cc(Nc3ccc(N4CCN(CCc5ccc(N6CCC(=O)NC6=O)cc5)C[C@@H]4C)cn3)ncn2)ccc1[C@@H](C)NC(=O)c1nc(C(C)(C)C)no1 | Dmax | % | 100 |
| Cc1c([C@@H](C)NC(=O)c2nc(C(C)(C)C)no2)ccc(-c2cc(Nc3ccc(N4CCN(CCc5ccc(N6CCC(=O)NC6=O)cc5)CC4)cn3)ncn2)c1F | Dmax | % | 97.7 |
| COC[C@H]1CN(CCc2ccc(N3CCC(=O)NC3=O)cc2)CCN1c1ccc(Nc2cc(-c3ccc([C@@H](C)NC(=O)c4nc(C(C)(C)C)no4)c(C)c3)ncn2)nc1 | Dmax | % | 99.9 |
| Cc1c([C@@H](C)NC(=O)c2nc(C(C)(C)C)no2)ccc(-c2cc(Nc3ccc(N4CCN(CCc5ccc(N6CCC(=O)NC6=O)cc5)C[C@@H]4C)cn3)ncn2)c1F | Dmax | % | 98.5 |
| Cc1cc(-c2cc(Nc3ccc(N4CCN(CCc5ccc(N6CCC(=O)NC6=O)cc5)C[C@H]4C)cn3)ncn2)ccc1[C@@H](C)NC(=O)c1nc(C(C)(C)C)no1 | Dmax | % | 98.8 |

====

# SYSTEM TESTED: BTK in mouse bone marrow (Mus musculus (Mouse))
# Sequence (P35991 whole entry): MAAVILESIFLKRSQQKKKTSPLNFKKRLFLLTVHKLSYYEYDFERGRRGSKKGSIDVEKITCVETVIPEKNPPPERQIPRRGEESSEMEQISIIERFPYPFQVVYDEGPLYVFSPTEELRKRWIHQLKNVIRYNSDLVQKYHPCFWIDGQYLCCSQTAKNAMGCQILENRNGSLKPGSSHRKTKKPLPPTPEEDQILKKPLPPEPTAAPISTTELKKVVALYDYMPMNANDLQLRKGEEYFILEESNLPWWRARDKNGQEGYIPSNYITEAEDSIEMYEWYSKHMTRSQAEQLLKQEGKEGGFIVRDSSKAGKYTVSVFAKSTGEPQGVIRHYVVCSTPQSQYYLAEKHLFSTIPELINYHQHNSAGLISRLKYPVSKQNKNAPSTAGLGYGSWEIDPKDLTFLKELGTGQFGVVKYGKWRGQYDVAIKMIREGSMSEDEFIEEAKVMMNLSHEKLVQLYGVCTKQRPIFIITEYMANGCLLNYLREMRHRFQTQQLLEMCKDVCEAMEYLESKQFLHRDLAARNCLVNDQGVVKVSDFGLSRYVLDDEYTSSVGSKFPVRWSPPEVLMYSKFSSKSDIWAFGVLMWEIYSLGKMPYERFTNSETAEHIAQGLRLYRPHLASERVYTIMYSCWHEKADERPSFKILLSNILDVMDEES
# TEST SUMMARY: Mouse Bone Marrow Assay (MSD ELISA of BTK degradation in bone marrow)
# Assay type: in vivo
# SETUP CONDITIONS: female C57BL/6J mice, single dose of Dose A, bone marrow collected after 24 hours
MEASURED ENDPOINT: Mouse Bone Marrow (%) (% remaining BTK, vehicle versus treated)

| COMPOUND STRUCTURE | UNIT SYMBOL | QUANTITATIVE RESULT |
| --- | --- | --- |
| Cc1cc(-c2cc(Nc3ccc(N4CCN(CCc5ccc(N6CCC(=O)NC6=O)cc5)CC4)cn3)ncn2)ccc1[C@@H](C)NC(=O)c1nc(C(C)(C)C)no1 | % | 22 |
| CC[C@H]1CN(CCc2ccc(N3CCC(=O)NC3=O)c(F)c2)CCN1c1ccc(Nc2cc(-c3ccc([C@@H](C)NC(=O)c4nc(C(C)(C)C)no4)c(C)c3)ncn2)nc1 | % | 22 |

P = C[C@@H](NC(=O)c1nc(C(C)(C)C)no1)c1ccc(-c2cc(Nc3ccc(N4CCN(CCc5ccc(N6CCC(=O)NC6=O)cc5)C[C@@H]4C)cn3)ncn2)cc1Cl
Q = Cc1cc(-c2cc(Nc3ccc(N4CCN(CCc5ccc(N6CCC(=O)NC6=O)cc5)C[C@@H]4C)cn3)ncn2)ccc1[C@@H](C)NC(=O)c1nc(C(C)(C)C)no1
R = CC[C@@H]1CN(CCc2ccc(N3CCC(=O)NC3=O)cc2)CCN1c1ccc(Nc2cc(-c3ccc([C@@H](C)NC(=O)c4nc(C(C)(C)C)no4)c(C)c3)ncn2)nc1
Ask: Ordering: ascending Mouse Bone Marrow (%) (% remaining BTK, vehicle versus treated). Note for the reader: the ranking is given by listing the labels in the order requested.
Reply: Q, P, R
(Q: 11%, P: 16%, R: 30%)

====

# SYSTEM TESTED: BTK protein in human whole blood (Homo sapiens (Human))
# TEST SUMMARY: Btk protein in human whole blood MSD ELISA based assay (BTK degradation)
# Assay type: cell-based
# SETUP CONDITIONS: 6 hours, maximum BTK degradation compared to DMSO only treated samples, read-out: hWB BTK dMax (%)
MEASURED ENDPOINT: Dmax (%)

| COMPOUND STRUCTURE | Dmax (%) |
| --- | --- |
| Cc1cc(-c2cc(Nc3ccc(N4CCN(CCc5ccc(N6CCC(=O)NC6=O)cc5)CC4)cn3)ncn2)c(F)cc1[C@@H](C)NC(=O)c1nc(C(C)(C)C)no1 | 99.8 |
| Cc1cc(-c2cc(Nc3ccc(N4CCN(CCc5ccc(N6CCC(=O)NC6=O)cc5)C[C@@H]4C(C)C)cn3)ncn2)ccc1[C@@H](C)NC(=O)c1nc(C(C)(C)C)no1 | 99 |
| Cc1cc(-c2cc(Nc3ccc(N4CCN(CCc5ccc(N6CCC(=O)NC6=O)cc5)C[C@@H]4C)cc3)ncn2)ccc1[C@@H](C)NC(=O)c1nc(C(C)(C)C)no1 | 99.5 |

====

# SYSTEM TESTED: BTK protein in human whole blood (Homo sapiens (Human), UniProt Q06187)
# Sequence (Q06187 whole entry): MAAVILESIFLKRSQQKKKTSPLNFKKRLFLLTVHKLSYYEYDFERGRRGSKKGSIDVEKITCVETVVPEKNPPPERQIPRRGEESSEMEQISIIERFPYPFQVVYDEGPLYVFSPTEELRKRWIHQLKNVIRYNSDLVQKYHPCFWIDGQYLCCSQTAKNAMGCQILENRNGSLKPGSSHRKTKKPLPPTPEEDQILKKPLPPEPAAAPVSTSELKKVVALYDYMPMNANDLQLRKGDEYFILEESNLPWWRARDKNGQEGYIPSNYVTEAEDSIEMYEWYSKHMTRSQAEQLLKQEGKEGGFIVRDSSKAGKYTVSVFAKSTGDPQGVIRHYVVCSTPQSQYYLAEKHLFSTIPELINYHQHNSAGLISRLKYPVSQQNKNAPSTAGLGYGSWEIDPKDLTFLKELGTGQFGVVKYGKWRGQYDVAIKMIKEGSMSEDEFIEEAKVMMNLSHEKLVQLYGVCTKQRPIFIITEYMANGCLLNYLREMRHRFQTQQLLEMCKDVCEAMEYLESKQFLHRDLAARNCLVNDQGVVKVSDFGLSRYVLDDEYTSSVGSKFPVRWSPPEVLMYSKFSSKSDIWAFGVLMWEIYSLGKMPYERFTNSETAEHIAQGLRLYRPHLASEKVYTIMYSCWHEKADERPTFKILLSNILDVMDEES
# TEST SUMMARY: Btk protein in human whole blood MSD ELISA based assay (BTK degradation)
# Format: cell-based
# SETUP CONDITIONS: 6 hours, maximum BTK degradation compared to DMSO only treated samples, read-out: hWB BTK dMax (%)
MEASURED ENDPOINT: Dmax (%)

| COMPOUND STRUCTURE | UNIT SYMBOL | QUANTITATIVE RESULT |
| --- | --- | --- |
| CC[C@H]1CN(CCc2ccc(N3CCC(=O)NC3=O)c(F)c2)CCN1c1ccc(Nc2cc(-c3ccc([C@@H](C)NC(=O)c4nc(C(C)(C)C)no4)c(C)c3)ncn2)nc1 | % | 99.3 |
| Cc1cc(-c2cc(Nc3ccc(N4CCN(CCc5ccc(N6CCC(=O)NC6=O)cc5)CC4(C)C)cn3)ncn2)ccc1[C@@H](C)NC(=O)c1nc(C(C)(C)C)no1 | % | 99.5 |
| Cc1cc(-c2cc(Nc3ccc(N4CCN(CCc5ccc(N6CCC(=O)NC6=O)c(F)c5)C[C@@H]4C)cn3)ncn2)ccc1[C@@H](C)NC(=O)c1nc(C(C)(C)C)no1 | % | 99.8 |
| Cc1cc(-c2cc(Nc3ccc(N4CCN(CCc5ccc(N6CCC(=O)NC6=O)c(F)c5)C[C@H]4C)cn3)ncn2)ccc1[C@@H](C)NC(=O)c1nc(C(C)(C)C)no1 | % | 99.3 |
| Cc1cc(-c2cc(Nc3ccc(CCN4CCN(c5ccc(N6CCC(=O)NC6=O)cc5)CC4)cn3)ncn2)ccc1[C@@H](C)NC(=O)c1nc(C(C)(C)C)no1 | % | 100 |
| CC[C@@H]1CN(CCc2ccc(N3CCC(=O)NC3=O)cc2)CCN1c1ccc(Nc2cc(-c3ccc([C@@H](C)NC(=O)c4nc(C(C)(C)C)no4)c(C)c3)ncn2)nc1 | % | 98.6 |
